- assay-system: ORL1 receptor (Homo sapiens)
- Sequence (P41146 whole entry): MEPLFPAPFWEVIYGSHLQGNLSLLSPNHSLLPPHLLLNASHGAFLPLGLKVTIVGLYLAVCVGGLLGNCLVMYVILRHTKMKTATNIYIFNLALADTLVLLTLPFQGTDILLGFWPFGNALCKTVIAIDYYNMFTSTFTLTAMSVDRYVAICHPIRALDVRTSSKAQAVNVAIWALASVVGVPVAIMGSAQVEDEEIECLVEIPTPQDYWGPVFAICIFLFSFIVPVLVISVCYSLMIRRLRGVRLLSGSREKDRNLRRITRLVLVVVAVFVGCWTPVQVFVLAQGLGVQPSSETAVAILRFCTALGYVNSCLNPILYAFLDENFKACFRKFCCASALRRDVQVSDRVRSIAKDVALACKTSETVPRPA
- procedure-text: cell-based
Ends that are not written are not given here.
result-type: pIC50
pIC50 is defined as minus the log10 of a concentration measured in mol/L.

Q: Can you share its pIC50? I mean this sequence: YGGFTGARKSARKLANQ [^1Tyr analogue]
A: 9.00
